The measured values listed here are drawn from PubChem BioAssay AID588335.

experiment: GDH-TPI coupling enzyme inhibitors, primary screen, artefact control for M. tuberculosis FBA inhibitor project, biochemical, absorbance, full deck (AID 588335); settings: GDH-TPI coupled enzyme counterscreen, NADH absorbance; at 4.8 µM;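 note: 0% = DMSO wells and 100% = wells lacking the enzyme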
In all, about 360,000 compounds went through this assay and about 4,500 (1.2%) were called active. Cut-off read from the data, not from the text of the source: active = inhibition above about 30%; inactive = the rest. The entries come from a sample that favours actives as a whole.
Could you please pick one outcome from this set? active, inactive

Check out these entries, answers already filled in.
{"compound": "Cc1ccc(NC(=O)CS(=O)CC(=O)N(c2ccccc2)C(C)C(=O)NC2CCCC2)cc1 (stereo unspecified)", "category-label": "inactive"}
{"compound": "CCCc1ccc(OCc2ccc(C(=O)N/N=C/c3cccc([N+](=O)[O-])c3)o2)c(OC)c1", "category-label": "inactive"}

Ask | What classification did CN(CCc1ccccc1)C(=O)c1cccc(NC(=O)Cc2cccc(NC(=O)C3CCCN(C(=O)C4CCC4)C3)c2)c1 (stereo unspecified) end up with in this test?
Reply | inactive

Ask | Query: recorded result category for Cc1cc(C)nc(N/N=C/c2c(CO)cnc(C)c2O)n1 in this test
Reply | inactive

Ask | Could you please tell me the result logged for O=C(N/N=C/c1cc([N+](=O)[O-])ccc1O)/C(=C\c1cccs1)NC(=O)c1ccccc1 in this assay?
Reply | inactive

Ask | Hi, sorry to bother you, what did the test record for CC(C=Cc1ccccc1)=NNS(=O)(=O)c1ccc([N+](=O)[O-])cc1 ?
Reply | inactive

Ask | Name the outcome recorded for C=CCN1C(=O)C(Cc2cccc(Cl)c2)S/C1=N/N=C/c1ccco1 (stereo unspecified) in the assay.
Reply | inactive

Ask | Look up the recorded call for O=C(Nc1ccc(C(=O)O)cc1)/C(=C/c1ccc([N+](=O)[O-])cc1)NC(=O)c1ccccc1 in this test.
Reply | active

Ask | I'd appreciate the recorded outcome for COc1ccc(/C=C(/NC(=O)c2ccccc2)C(=O)Nc2cccc(C(=O)O)c2)cc1 from this test.
Reply | inactive

Ask | Check the results log: what was the call for CC1(C)Cc2ccccc2-c2nnc(-c3cccc(O)c3)n21 ?
Reply | inactive

Ask | In this assay, the call recorded for O=C(N/C(=C\c1ccc(O)cc1)C(=O)N1CCCCC1)c1ccccc1 was what?
Reply | inactive

Ask | # lookup: test call for COc1ccc2[nH]c3c(c2c1)CCN1C(=O)C(CC(=O)NCc2cccc(C(F)(F)F)c2)C[C@H](C(=O)N2CCOCC2)[C@@]31C (stereo partly specified)
Reply | inactive

Ask | # lookup: test call for Cc1ccc(NC(=O)C(=O)NCc2ccco2)c(C)c1
Reply | inactive

Ask | # lookup: test call for Cc1ccc(C(=O)N/C(=C/C=C/c2ccccc2)C(=O)NCc2ccco2)cc1
Reply | active

Ask | Give the logged outcome of this assay for the following compound: Cn1c(=NC(=O)c2cnccn2)sc2ccccc21
Reply | inactive

Ask | Record lookup: outcome of this test for CCCCNC(=O)CSc1nc2n[nH]c(C)c2c(=N)n1-c1cccc(Cl)c1C ?
Reply | active

Ask | Status in this test for Cn1c(SCC(=O)c2ccccc2)ncc(C(=O)Nc2ccc(F)cc2)c1=O ?
Reply | inactive

Ask | Returns: the outcome recorded for COc1cc(/C=N/NC(=O)c2cc(-c3ccccc3C)nc3ccccc23)cc(OC)c1O in this assay.
Reply | active

Ask | How was COc1cccc(-n2c(SCC(=O)NC3CCCCC3)nc3n[nH]c(C)c3c2=N)c1 classified in this test?
Reply | inactive

Ask | Please share the test call associated with Cc1occc1C(=O)N/N=C/c1ccc(-c2cccc([N+](=O)[O-])c2)o1 .
Reply | active

Ask | What is the recorded call for this compound in the test? O=C(N/N=C/c1ccc(O)cc1)/C(=C/c1ccc([N+](=O)[O-])cc1)NC(=O)c1ccccc1
Reply | active

Ask | For O=C1N/C(=N\N=C\c2ccco2)SC1Cc1ccc(F)cc1 (stereo unspecified) , what call appears in the results of this test?
Reply | active

----------
assay: GDH-TPI coupling enzyme inhibitors, primary screen, artefact control for M. tuberculosis FBA inhibitor project, biochemical, absorbance, full deck (AID 588335); conditions: GDH-TPI coupled enzyme counterscreen, NADH absorbance; at 4.8 µM; stronger effect = higher value;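 note: 0% = DMSO wells and 100% = wells lacking the enzyme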
In all, about 360,000 compounds went through this assay and about 4,500 (1.2%) were called active. The sample as a whole holds a higher share of actives than the screen did.
Everything with inhibition lower than 10% is label 0; everything else, including exactly 10%, is label 1.

Example entries and their recorded answers appear below.
{"compound": "COc1ccc([C@H]2CC(=O)C=C(c3ccc(C)cc3)C2)cc1", "category-label": "label 1"}
{"compound": "Cc1cccc(NC(=O)/C=C/c2ccc3c(c2)OCO3)n1", "category-label": "label 1"}
{"compound": "CC1CCCCC1NC(=O)COC(=O)Cc1ccc(Br)cc1 (stereo unspecified)", "category-label": "label 0"}

Ask | Please indicate if the recorded inhibition for CC(=O)N[C@@H](C)C(=O)N1CCC(n2nccc2NC(=O)CCCc2ccccc2)CC1 meets or exceeds 10%.
Reply | label 0

Ask | Quick check: does CSc1ccccc1NC(=O)CN(C)CC(=O)Nc1cccc(Br)c1 have inhibition greater than or equal to 10%?
Reply | label 0

Ask | Is inhibition for Cc1ccc2c(O)c(Cc3ccccc3)c(=O)[nH]c2n1 at or above 10%?
Reply | label 1

Ask | For this compound, is measured inhibition 10% or higher? O=C(COC(=O)/C=C/c1ccc2c(c1)OCO2)NC1CCS(=O)(=O)C1 (stereo unspecified)
Reply | label 1

Ask | Does the reported inhibition for CC(C)(C)NC(=O)COC(=O)c1cc(Br)ccc1Cl fall at or above the 10% mark?
Reply | label 0

Ask | Is it the case that CCOC(=O)c1cc(S(=O)(=O)NCCc2ccc(OC)c(OC)c2)cn1C has inhibition reaching or exceeding 10%?
Reply | label 0

Ask | Quick check, inhibition >= 10%? CNC(=S)N/N=C/c1ccc(OCc2ccccc2)c(Br)c1
Reply | label 0

Ask | Form field: inhibition at least 10%? Entry: COc1ccc(S(=O)(=O)N2CCN(C(=O)c3cccs3)CC2)cc1OC
Reply | label 0

----------
experiment: GDH-TPI coupling enzyme inhibitors, primary screen, artefact control for M. tuberculosis FBA inhibitor project, biochemical, absorbance, full deck (AID 588335); conditions: GDH-TPI coupled enzyme counterscreen, NADH absorbance; at 4.8 µM; stronger effect = higher value;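 note: 0% = DMSO wells and 100% = wells lacking the enzyme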
Among all 360,000 compounds or so, about 4,500 (1.2%) were called active. The full list was thinned out, with actives kept by preference.
property-measured: inhibition (%)
Numbers only, in %.

Study these solved cases before continuing.
{"compound": "CCc1nnc(NC(=O)/C=C/c2ccc(C)o2)s1", "property-measured": "inhibition", "result-units": "%", "readout-number": 40.7}
{"compound": "COC(=O)C(c1ccccc1)N1CCCCCC1 (configuration not stated)", "property-measured": "inhibition", "result-units": "%", "readout-number": -4.27}
{"compound": "CCCCc1ccc(S(N)(=O)=O)cc1", "property-measured": "inhibition", "result-units": "%", "readout-number": 1.6}
{"compound": "COc1ccc(C(=O)CSc2n[nH]c(N)n2)cc1", "property-measured": "inhibition", "result-units": "%", "readout-number": 4}
{"compound": "CN1C(=O)c2ccc(NC(=O)c3c(F)c(F)c(F)c(F)c3F)cc2C1=O", "property-measured": "inhibition", "result-units": "%", "readout-number": 10.2}
{"compound": "COc1cccc(CNC(=O)COc2cc(O)c3c(c2)OC(C)(C)CC3=O)c1", "property-measured": "inhibition", "result-units": "%", "readout-number": 0}
{"compound": "COC(=O)c1cccc(NC(=O)CSc2nc(C)cc(=O)[nH]2)c1", "property-measured": "inhibition", "result-units": "%", "readout-number": -11.5}
{"compound": "CCc1nnc(NC(=O)c2ccco2)s1", "property-measured": "inhibition", "result-units": "%", "readout-number": 15.9}

Please go through the list and note inhibition for each compound.
1. COc1ccc2sc(-c3ccc(N(C)C)cc3)c(-c3ccc4cc[nH]c4c3)c2c1
2. CCc1nnc(NC(=O)[C@@H](NC(=O)c2cccc(C)c2)C(C)C)s1
3. COC(=O)c1cc(C(=O)CSc2nc(C)cc(C)n2)ccc1O
4. CN(C)c1ccc(C=NCCc2ccc(S(N)(=O)=O)cc2)cc1

Reply |
33.5
-6.25
31.6
54.4

----------
test: GDH-TPI coupling enzyme inhibitors, primary screen, artefact control for M. tuberculosis FBA inhibitor project, biochemical, absorbance, full deck (AID 588335); details: GDH-TPI coupled enzyme counterscreen, NADH absorbance; at 4.8 µM; stronger effect = higher value;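 note: 0% = DMSO wells and 100% = wells lacking the enzyme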
The whole screen tested about 360,000 compounds, of which about 4,500 (1.2%) were called active. The full list was thinned out, with actives kept by preference.
property-measured: inhibition

The following compounds have reported results that may help.
{"compound": "Nc1ccccc1-c1nc2ccncc2[nH]1", "result": "17.8% (inactive)"}
{"compound": "CCN(C(=O)COC(=O)c1cc(S(=O)(=O)N2CCc3ccccc32)ccc1OC)C1CCS(=O)(=O)C1 (stereo not given)", "result": "-2.55% (inactive)"}
{"compound": "O=C(Cn1cc(/C=N/NC(=O)c2cccc(C(F)(F)F)c2)c2ccccc21)Nc1ccc(F)cc1", "result": "9.15% (inactive)"}

Batch lookup, inhibition per entry.
1. NS(=O)(=O)c1ccc(NC(=O)COC(=O)CCc2c[nH]c3ccccc23)cc1
2. NS(=O)(=O)c1ccc(NC(=O)COC(=O)c2cc3ccccc3oc2=O)cc1
3. N#CCC(=O)N/N=C/c1ccc(SCC(=O)Nc2ccccc2)o1

Reply |
4.09% (inactive)
32.9% (active)
15.4% (inactive)

For every record below, what is its inhibition?
1. COc1ccc(-c2ccc(Nc3ccc(S(=O)(=O)N4CCCC4)cc3)nn2)cc1OC
2. COc1ccc([C@H]2CC(=O)C=C(/C=C/c3ccccc3)C2)cc1

Reply |
["50.4% (active)", "37.2% (active)"]

Hi there! I need inhibition for each item below, if you can.
1. COc1ccc([C@H]2CC(=O)C=C(/C=C/c3ccc(Cl)cc3)C2)cc1
2. O=C(C[C@H]1C(=O)N(c2ccc(F)c(F)c2)C[C@@H]1Cc1ccccc1)Nc1ccccc1

Reply |
1. 2.59% (inactive)
2. -1.2% (inactive)
